Values from patent US20250136595A1

Molecular target: phosphorylated ERBB2 (pERBB2) (Homo sapiens)
Construct: endogenous in cells
Sequence (P04626 23-1255): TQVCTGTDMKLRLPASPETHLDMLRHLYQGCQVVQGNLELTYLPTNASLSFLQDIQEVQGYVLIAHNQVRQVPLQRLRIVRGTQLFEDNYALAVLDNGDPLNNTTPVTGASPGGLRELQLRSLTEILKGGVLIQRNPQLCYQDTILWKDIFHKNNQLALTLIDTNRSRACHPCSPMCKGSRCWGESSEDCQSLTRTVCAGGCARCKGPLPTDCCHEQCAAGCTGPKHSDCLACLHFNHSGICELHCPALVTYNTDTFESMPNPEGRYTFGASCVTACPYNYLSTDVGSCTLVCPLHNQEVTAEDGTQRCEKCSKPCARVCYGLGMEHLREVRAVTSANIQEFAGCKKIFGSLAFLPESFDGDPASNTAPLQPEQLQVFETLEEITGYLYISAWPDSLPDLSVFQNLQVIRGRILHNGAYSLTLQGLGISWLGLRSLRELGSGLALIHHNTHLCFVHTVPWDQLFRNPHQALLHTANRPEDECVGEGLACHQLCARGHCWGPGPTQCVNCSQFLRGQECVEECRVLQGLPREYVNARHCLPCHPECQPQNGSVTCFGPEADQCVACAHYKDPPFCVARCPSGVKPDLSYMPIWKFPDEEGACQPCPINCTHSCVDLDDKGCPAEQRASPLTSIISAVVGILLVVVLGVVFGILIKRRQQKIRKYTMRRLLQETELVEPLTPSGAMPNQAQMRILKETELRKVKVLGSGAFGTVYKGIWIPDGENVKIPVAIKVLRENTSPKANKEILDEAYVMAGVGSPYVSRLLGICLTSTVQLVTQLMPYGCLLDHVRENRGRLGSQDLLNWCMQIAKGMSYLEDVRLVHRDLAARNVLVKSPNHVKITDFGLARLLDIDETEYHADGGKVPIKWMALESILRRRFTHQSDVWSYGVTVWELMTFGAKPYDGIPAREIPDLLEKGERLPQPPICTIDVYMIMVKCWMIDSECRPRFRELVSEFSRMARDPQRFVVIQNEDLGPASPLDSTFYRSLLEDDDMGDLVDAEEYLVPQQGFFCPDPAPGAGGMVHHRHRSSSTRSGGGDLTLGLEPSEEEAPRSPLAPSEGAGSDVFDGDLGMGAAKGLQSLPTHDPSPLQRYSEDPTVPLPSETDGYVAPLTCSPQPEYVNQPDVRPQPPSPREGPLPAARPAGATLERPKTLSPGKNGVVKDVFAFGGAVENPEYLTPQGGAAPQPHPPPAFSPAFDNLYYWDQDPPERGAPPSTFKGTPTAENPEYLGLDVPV
Assay: Detection of phosphorylated ERBB2 (pERBB2) by ELISA in BT-474 cells
Settings: four hour incubation with compound
List of pIC50 values.
Give only the number. pIC50 is defined as minus log10 of concentration in molar units.

Some molecules with known pIC50 results, for comparison:
molecule: Cc1cc(Nc2ncnc3ccc(N4CCN(C(=O)/C=C/CN(C)C)CC4C)c(F)c23)ccc1Cc1ccn2ncnc2c1 (stereo not shown) [Compound 94]
pIC50: 6.80
//
molecule: C=CC(=O)N1CCN(c2cc3c(Nc4ccc(Oc5ccc(C(=O)NCC(C)(C)C)cc5)c(C)c4)ncnc3cn2)CC1 [Compound 39]
pIC50: 7.22
//
molecule: C=CC(=O)N1CCN(c2ccc3ncnc(Nc4ccc(Oc5ccc6scnc6c5)c(C)c4)c3n2)CC1 [Compound 119]
pIC50: 7.59
//
molecule: C=CC(=O)N1CCCN(c2ccc3ncnc(Nc4ccc(Oc5ccn6ncnc6c5)c(C)c4)c3n2)CC1 [Compound 16]
pIC50: 7.51
//
molecule: CC#CC(=O)N1CCN(c2ccc3ncnc(Nc4ccc(O[C@H]5CCCOC5)c(C)c4)c3n2)CC1 [Compound 33]
pIC50: 6.28

Given the molecule C=CC(=O)N1CCN(c2ccc3ncnc(Nc4ccc(Oc5ccn6ncnc6c5)c(C)c4)c3n2)CC1(C)C [Compound 108] , what is its reported pIC50?
8.00

Given the molecule C=CC(=O)N1CCN(c2cc3c(Nc4ccc(OC5CCN(C(=O)C6CCCC6)CC5)c(C)c4)ncnc3cn2)CC1 [Compound 2] , what is its reported pIC50?
7.32

---

Target: phosphorylated EGFR (pEGFR) (Homo sapiens, UniProt P00533)
Construct: performed to measure phosphorylated EGFR levels using A431 cells; endogenous in cells
Sequence (P00533 25-1210): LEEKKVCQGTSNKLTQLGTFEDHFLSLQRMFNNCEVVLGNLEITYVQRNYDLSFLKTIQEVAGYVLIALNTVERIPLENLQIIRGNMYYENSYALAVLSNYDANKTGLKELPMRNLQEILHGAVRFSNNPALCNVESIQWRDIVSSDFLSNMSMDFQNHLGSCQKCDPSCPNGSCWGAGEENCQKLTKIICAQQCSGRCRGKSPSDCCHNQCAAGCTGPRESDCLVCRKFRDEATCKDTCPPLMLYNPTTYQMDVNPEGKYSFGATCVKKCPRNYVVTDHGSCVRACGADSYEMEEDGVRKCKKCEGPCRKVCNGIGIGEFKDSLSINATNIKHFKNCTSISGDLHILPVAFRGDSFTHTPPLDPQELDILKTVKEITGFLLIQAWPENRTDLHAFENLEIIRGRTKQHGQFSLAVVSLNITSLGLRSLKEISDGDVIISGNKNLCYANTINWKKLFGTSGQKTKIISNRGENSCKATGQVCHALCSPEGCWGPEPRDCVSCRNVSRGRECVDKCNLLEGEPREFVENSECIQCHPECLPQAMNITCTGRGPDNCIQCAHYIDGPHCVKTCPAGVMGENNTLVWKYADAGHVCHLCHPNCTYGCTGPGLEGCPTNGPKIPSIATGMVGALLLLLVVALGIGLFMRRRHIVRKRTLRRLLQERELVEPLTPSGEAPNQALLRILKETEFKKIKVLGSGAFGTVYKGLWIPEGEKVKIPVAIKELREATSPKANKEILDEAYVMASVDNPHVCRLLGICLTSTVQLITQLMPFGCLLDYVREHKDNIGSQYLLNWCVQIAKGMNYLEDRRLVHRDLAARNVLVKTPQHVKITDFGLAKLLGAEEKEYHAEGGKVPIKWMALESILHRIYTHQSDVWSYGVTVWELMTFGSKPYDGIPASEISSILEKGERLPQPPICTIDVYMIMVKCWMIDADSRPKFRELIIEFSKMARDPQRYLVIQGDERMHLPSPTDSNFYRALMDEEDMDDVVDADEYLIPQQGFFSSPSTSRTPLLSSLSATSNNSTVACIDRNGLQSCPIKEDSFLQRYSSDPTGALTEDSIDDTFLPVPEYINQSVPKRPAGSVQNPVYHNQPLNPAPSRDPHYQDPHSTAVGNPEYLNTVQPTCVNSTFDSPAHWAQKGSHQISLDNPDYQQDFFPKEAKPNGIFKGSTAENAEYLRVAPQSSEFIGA
Assay: Detection of phosphorylated EGFR (pEGFR) in EGF-stimulated A431 cells (AlphaLISA)
Conditions: A431 cells (10% FBS), 4 hours incubation, EGF 30 ng/mL for 10 minutes
quantityKind: pIC50
Give only the number. pIC50 is defined as minus log10 of concentration in molar units.

sampleSmiles: CC#CC(=O)N1CCN(c2ccc3ncnc(Nc4ccc(Oc5ccn6ncnc6c5)c(C)c4)c3n2)C[C@H]1C
quantityKind: pIC50
testResult: 6.28
//
sampleSmiles: C=CC(=O)N1CCN(c2ccc3ncnc(Nc4ccc(Oc5ccc6c(c5)ncn6C)c(C)c4)c3n2)CC1
quantityKind: pIC50
testResult: 6.39

Now for another entry.
Given the compound "Cc1cc(Nc2ncnc3ccc(N4CCN(C(=O)/C=C/CN(C)C)[C@H](C)C4)nc23)ccc1Oc1ccn2ncnc2c1" , what is its reported pIC50?
5.75

---

List of pIC50 values.
Target: phosphorylated EGFR (pEGFR) (Homo sapiens)
Construct: performed to measure phosphorylated EGFR levels using A431 cells; endogenous in cells
Experiment: Detection of phosphorylated EGFR (pEGFR) in EGF-stimulated A431 cells (AlphaLISA)
Conditions: A431 cells (10% FBS), 4 hours incubation, EGF 30 ng/mL for 10 minutes
Give only the number. pIC50 is defined as minus log10 of concentration in molar units.

Some compounds with known pIC50 results, for comparison:
compound: CC#CC(=O)N1CCN(c2cc3c(Nc4ccc(Oc5ccc6c(c5)ncn6C)c(C)c4)ncnc3cn2)C[C@H]1C [Compound 71]
pIC50: 5.99
//
compound: C=CC(=O)N1CCN(c2ccc3ncnc(Nc4ccc(Cc5ccn6ncnc6c5)c(C)c4)c3n2)CC1 [Compound 110]
pIC50: 5.51
//
compound: CC#CC(=O)N1CCN(c2ccc3ncnc(Nc4ccc(Oc5ccn6ncnc6c5)c(C)c4)c3n2)CC1 [Compound 8]
pIC50: 5.29

Request body: readout pIC50, system phosphorylated EGFR (pEGFR) (Homo sapiens), query C=CC(=O)N1CCN(c2cc3c(Nc4ccc(Oc5ccc6c(c5)ncn6C)c(C)c4)ncnc3cn2)C[C@H]1C [Compound 59] . Return the value.
5.42

Request body: readout pIC50, system phosphorylated EGFR (pEGFR) (Homo sapiens), query C=CC(=O)N1CCN(c2ccc3ncnc(Nc4ccc(Cc5ccn6ncnc6c5)c(C)c4)c3n2)[C@@H](C)C1 [Compound 66] . Return the value.
5.04
